System: Z. tritici
Test: Anti-proliferative EC50 assay (MTS viability)
Format: cell-based, Zymoseptoria tritici
Details: Zymoseptoria tritici; Fig. 1B; Z. tritici cell viability, MTS, 40 h; read-out: EC50
outcome.measure: EC50

q: Look up and report measured EC50 for this entry: N[C@H](CC(=O)N1C[C@H](CO)[C@@H](c2ccc(Cl)c(NC(=O)Cc3ccc(F)cc3)c2)C1)Cc1ccc(Cl)cc1 [IMP-162]
a: ~20 µM

---

Biological target: ZtNMTΔ99 (Zymoseptoria tritici, UniProt F9XBB7)
Sequence (F9XBB7 entry or part of it, stated change not applied): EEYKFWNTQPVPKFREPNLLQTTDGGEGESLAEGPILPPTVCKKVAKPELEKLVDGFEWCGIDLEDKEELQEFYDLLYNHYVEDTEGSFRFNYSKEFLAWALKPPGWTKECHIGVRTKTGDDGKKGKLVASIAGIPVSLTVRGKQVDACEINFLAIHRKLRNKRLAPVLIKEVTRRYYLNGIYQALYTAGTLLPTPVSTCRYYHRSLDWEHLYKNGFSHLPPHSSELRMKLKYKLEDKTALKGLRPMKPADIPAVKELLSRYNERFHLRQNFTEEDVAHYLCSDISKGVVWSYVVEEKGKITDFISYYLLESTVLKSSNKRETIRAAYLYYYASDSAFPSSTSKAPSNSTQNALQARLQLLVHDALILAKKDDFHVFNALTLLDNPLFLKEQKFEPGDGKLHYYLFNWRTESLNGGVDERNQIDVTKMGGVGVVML
Experiment: ZtNMT IC50 assay (CPM, enzymatic)
Format: biochemical
Conditions: Table S1; enzymatic CPM assay; read-out: IC50
outcome.measure: IC50

Some solved cases for reference:
compound: Cc1nn(C)c(C)c1CCOc1cc(F)ccc1-c1ccc2nnc(C3CNC3)n2c1 [IMP-1091]
outcome.measure: IC50
result: 2.1 µM
//
compound: CNCc1cnc2ccc(-c3ccc(F)cc3OCCc3c(C)nn(C)c3C)cn12 [IMP-1097]
outcome.measure: IC50
result: 0.2 µM
//
compound: CNCc1nnc2ccc(-c3ccc(F)cc3OCCc3c(C(=O)N4CCCC4)nn(C)c3C)cn12 [IMP-1112]
outcome.measure: IC50
result: 0.42 µM
//
compound: Cc1c(CCOc2cc(F)ccc2-c2ccc3nnc(C4CNC4)n3c2)c(C(=O)N(C)C)nn1C [IMP-1100]
outcome.measure: IC50
result: 0.016 µM
//
compound: Cc1nn(C)c(C)c1CCOc1c(F)cccc1-c1ccc2c(c1)c(CN(C)C)nn2C [IMP-1031]
outcome.measure: IC50
result: 0.016 µM

// input: 7 compounds below; output: IC50 for each
1. Cc1c(CCOc2cc(F)ccc2-c2ccc3ncc(CN(C)C)n3c2)c(C(=O)N(C)C)nn1C [IMP-1134]
2. CNCc1cnc2ccc(-c3ccc(F)cc3OCCc3c(C(N)=O)nn(C)c3C)cn12 [IMP-1179]
3. COc1cc(CCOC(=O)c2sc3ccccc3c2OC2CCNCC2)cc(OC)c1 [IMP-277]
4. Cc1nn(C)c(C)c1CCOc1c(F)cccc1-c1ccc2ncc(CN(C)C)n2c1 [IMP-1131]
5. CNCCc1cnc2ccc(-c3ccc(F)cc3OCCc3c(CO)nn(C)c3C)cn12 [IMP-1185]
6. Cc1nn(C)c(C)c1CCOc1cc(F)ccc1-c1ccc2nnc(C3CCCN3)n2c1 (stereo not drawn) [IMP-1090]
7. Cc1nn(C)c(C)c1Cc1nnc(-c2cc(Cl)ccc2OC2CCNCC2)o1 [IMP-329]

a:
["< 0.001 µM", "0.28 µM", "> 300 µM", "2.4 µM", "4 µM", "22 µM", "0.87 µM"]

// input: 5 compounds below; output: IC50 for each
1. Cc1nn(C)c(C)c1CCOc1cc(F)ccc1-c1ccc2[nH]nc(CN(C)C)c2c1 [IMP-917]
2. Cc1nn(C)c(C)c1CCOc1c(F)cccc1-c1ccc2c(c1)c(CN)nn2C [IMP-1034]
3. CNCc1nnc2ccc(-c3ncccc3OCCc3c(C)nn(C)c3C)cn12 [IMP-1093]
4. CNCc1cnc2ccc(-c3ccc(F)cc3OCCc3c(C#N)nn(C)c3C)cn12 [IMP-1195]
5. CNCc1nnc2ccc(-c3ccc(F)cc3OCCc3c(C(=O)N(C)C)nn(C)c3C)cn12 [IMP-1094]

a:
1. 0.16 µM
2. 0.032 µM
3. > 300 µM
4. < 0.001 µM
5. 0.086 µM

Where do these numbers come from? They come from paper PMC8341946.
